Where these numbers come from: paper PMC3900297

# System name: CYP261D1 (P450-PE36)
# Assay procedure: absorbance spectral titration
# Assay type: binding, Moritella sp. PE36
# Protocol conditions: read-out: Arachidonic acid / KD; (−) conformer; 0.1 M Na-Hepes pH 7.4, 0.5 mM EDTA, 25 °C, ambient pressure
pKd: −log10 of the molar value.
Recorded endpoint: pKd

# Compound structure, Quantitative result
records = [
    ("CCCCC/C=C\\C/C=C\\C/C=C\\C/C=C\\CCCC(=O)O", 5.05),
]

* * *

# System name: CYP261D1 (P450-PE36)
# Assay procedure: absorbance spectral titration
# Type: binding, Moritella sp. PE36
# Protocol conditions: read-out: Myristic acid / KD; (−) conformer; 0.1 M Na-Hepes pH 7.4, 0.5 mM EDTA, 25 °C, ambient pressure
Recorded endpoint: Kd (nM)

# Compound structure, Recorded endpoint, Measurement unit, Quantitative result
records = [
    ("CCCCCCCCCCCCCC(=O)O", "Kd", "nM", 3000),
]
